test system: GABA-A receptor; experiment: 35S-TBPS binding assay on rat cerebral cortex cell membrane; set-up: species or system Sprague-Dawley rat; details: 2 nM 35S-TBPS, GABA added, read-out: 35S-TBPS bindng test, IC50 on inhibiting the TBPS binding activity
READOUT_LABEL: pIC50
When answering, recall that pIC50 equals minus log10 of the concentration in mol/L, and write that number alone.

Examples with answers:
smiles_structure=C[C@@]1(O)CC[C@@]2(F)[C@H](CC[C@H]3[C@@H]4CC[C@H](C(=O)COc5ccc(C#N)c(F)c5)[C@@]4(C)CC[C@@H]32)C1 experimental_system="GABA-A receptor" readout_label=pIC50 recorded_value=7.82
smiles_structure=C[C@@]1(O)CC[C@@]2(F)[C@H](CC[C@H]3[C@@H]4CC[C@H](C(=O)Cn5cc(Cl)cn5)[C@@]4(C)CC[C@@H]32)C1 experimental_system="GABA-A receptor" readout_label=pIC50 recorded_value=7.77
smiles_structure=C[C@@]1(O)CC[C@@]2(F)[C@H](CC[C@H]3[C@@H]4CC[C@H](C(=O)COc5cncnc5)[C@@]4(C)CC[C@@H]32)C1 experimental_system="GABA-A receptor" readout_label=pIC50 recorded_value=7.32
smiles_structure=C[C@@]1(O)CC[C@@]2(F)[C@H](CC[C@H]3[C@@H]4CC[C@H](C(=O)COc5cnc(C(F)(F)F)nc5)[C@@]4(C)CC[C@@H]32)C1 experimental_system="GABA-A receptor" readout_label=pIC50 recorded_value=7.57

Turning to the following molecule.
Quickly give me recorded pIC50 for CSc1cnn(CC(=O)[C@H]2CC[C@H]3[C@@H]4CC[C@@H]5C[C@](C)(O)CC[C@]5(F)[C@H]4CC[C@]23C)c1
7.37
